The following compounds are shown together with reported melting point values.
endpoint.name: melting point

| compound | result |
| --- | --- |
| CC(C)(C)CC(C)(C)c1ccc(N2CCC(C(=O)Nc3cccc(OC(F)(F)F)c3)CC2)cc1 | 139 to 140 °C |
| CC(=O)N(CCC(=O)Nc1cccc(OC(F)(F)F)c1)c1ccc(C(C)(C)CC(C)(C)C)cc1 [Compound 57d] | 164 to 166 °C |
| O=C(CCOc1ccc2ccccc2c1)Nc1cccc(OC(F)(F)F)c1 [Compound 39a] | 82 to 85 °C |
| CC(C)(C)CC(C)(C)c1ccc(OCCNC(=O)c2cccc(OC(F)(F)F)c2)cc1 [Compound 44a] | 65 to 67 °C |
| O=C(CCOc1ccc2ccc(Br)cc2c1)Nc1cccc(OC(F)(F)F)c1 [Compound 39b] | 113 to 115 °C |
